Test system: TK-10 renal
assaySummary: NCI tumour cell line growth inhibition, 48 h

{"compound": "COc1cc(O)c2c3c(ccnc13)-c1ccccc1N2", "unitAbbrev": "µM", "limitQualifier": "=", "TGI": 85.9}
{"compound": "COc1cccc(C2CC(=O)c3cc(N4CCCC4)ccc3N2)c1 (stereo not given)", "unitAbbrev": "µM", "limitQualifier": ">", "TGI": 100}
{"compound": "N#Cc1cc2c(cc1Cl)SC(=Nc1ccccc1)N(S(=O)(=O)c1ccc(Cl)cc1)S2(=O)=O", "unitAbbrev": "µM", "limitQualifier": "=", "TGI": 3.64}
{"compound": "COc1ccc(NC(=O)CC(=O)n2nc(-c3ccccc3)c(N=Nc3ccccc3C(=O)O)c2-c2ccccc2)cc1", "unitAbbrev": "µM", "limitQualifier": ">", "TGI": 100}
{"compound": "NC(N)=N/N=C(/CCN1CCCC1)CC(c1ccccc1)c1c(O)c2ccccc2oc1=O (stereo not given)", "unitAbbrev": "µM", "limitQualifier": ">", "TGI": 100}

###

System: SN12C renal
assaySummary: NCI tumour cell line growth inhibition, 48 h
Where a SMILES comes first, the peptide text is derived from it. [ ]: non-standard residue; d: D form. The star is where a group is joined. Chg = N[CH](C(=O)O)C1CCCCC1; Cbz = O=C(OCc1ccccc1)*; OBn = c1ccc(CO*)cc1
# Lookup of reported TGI keyed by entry
quantityMeasured: TGI (µM)

{"molecule": "Cc1ccc(/C(O)=C/c2nc3ccccc3[nH]c2=O)cc1", "unitAbbrev": "µM", "limitQualifier": "=", "experimentalValue": 34}
{"molecule": "CCOc1cc2ncc(C#N)c(Nc3ccc(F)c(Cl)c3)c2cc1NC(=O)CC1CCSS1 (centres undefined)", "unitAbbrev": "µM", "limitQualifier": "=", "experimentalValue": 2.5}
{"molecule": "COC(=O)C(NC(=O)C(CC(=O)OCc1ccccc1)NC(=O)OCc1ccccc1)C1CCCCC1 (centres undefined) (Cbz-Asp(OBn)-[Chg]-OMe; configuration not given here)", "unitAbbrev": "µM", "limitQualifier": ">", "experimentalValue": 100}
{"molecule": "C=CCC(NCc1ccccc1)[C@H](OCc1ccccc1)[C@@H]1COC(C)(C)O1 (some centres undefined)", "unitAbbrev": "µM", "limitQualifier": ">", "experimentalValue": 100}

###

Test system: SN12C renal
assaySummary: NCI tumour cell line growth inhibition, 48 h
# Lookup of reported TGI keyed by entry
quantityMeasured: TGI

{"compound": "COC(=O)CCC1(C)C2CCC1/C(=N/O)C2 (stereo not drawn)", "experimentalValue": "> 100 µM"}
{"compound": "CC[C@H](C)[C@H](NC(=O)C12CC(NC)(C1)C2)C(=O)N(C)[C@H](C[C@@H](OC(C)=O)c1nc(C(=O)N[C@@H](Cc2ccccc2)C[C@H](C)C(=O)OC)cs1)C(C)C", "experimentalValue": "> 25 µM"}
{"compound": "CCc1c(-c2ccccc2)[nH]c2ccccc2c1=O", "experimentalValue": "> 100 µM"}
{"compound": "COCC1OC(OC2OCC3OC4(OCC(O)(C(C)OC)C5OCOC54)OC3C2OC)C(OC)C(O)C1OC1OC(C)C(OC)C(OC2OC(C)C3OC4(CC(O)C(OC5CC(OC6CC(C)([N+](=O)[O-])C(OC)C(C)O6)C(OC(=O)c6c(C)c(Cl)c(O)c(Cl)c6OC)C(C)O5)C(C)O4)OC3(C)C2O)C1O (stereo not drawn)", "experimentalValue": "> 100 µM"}
{"compound": "CC(C)c1ccccc1NC(=O)CCC(=O)NN", "experimentalValue": "> 100 µM"}
{"compound": "Cc1nc2ccccc2c(=O)n1NC(=O)c1ccc(N)cc1", "experimentalValue": "> 100 µM"}
{"compound": "CC(C)Cn1cnc2c(Sc3c([N+](=O)[O-])ncn3C)nc(N)nc21", "experimentalValue": "> 100 µM"}
{"compound": "OCCOCCO/N=C1\\C(c2c(O)[nH]c3ccccc23)=Nc2ccccc21", "experimentalValue": "17.9 µM"}

###

Test system: CAKI-1 renal
assaySummary: NCI tumour cell line growth inhibition, 48 h
Where a SMILES comes first, the peptide text is derived from it. Bridges are numbered along the chain shown (N, C = ends). [ ]: non-standard residue; d: D form. The star is where a group is joined. ξ: configuration not given here. PhAc = O=C(Cc1ccccc1)*; ξP = O=C(O)C1CCCN1
# Lookup of reported TGI keyed by entry

{"compound": "CC(C)NC(=O)OCc1c(COC(=O)NC(C)C)n(C)c2c1ccc1ccsc12", "TGI": "13.9 µM"}
{"compound": "CC(C)c1ccccc1NC(=O)CCC(=O)NN", "TGI": "> 100 µM"}
{"compound": "COC(=O)CCC1(C)C2CCC1/C(=N/O)C2 (configuration not stated)", "TGI": "> 100 µM"}
{"compound": "N#C/C(=C\\c1ccc2c(c1)OCO2)n1nnc2ccccc21", "TGI": "13.1 µM"}
{"compound": "C[C@@H]1OC(=O)C[C@H]2CC(=O)N(CCC3CN(C(=O)c4ccccc4)c4ccccc43)C[C@@H]21 (some centres not stated)", "TGI": "> 100 µM"}
{"compound": "CCc1c(-c2ccccc2)[nH]c2ccccc2c1=O", "TGI": "> 100 µM"}
{"compound": "O=C(Cc1ccccc1)N[C@@H]1COC(=O)C2CCCN2C(=O)[C@@H]2CCCN2C1=O (some centres not stated) (PhAc-[dS]-Pro-[ξP]; ester 1-C)", "TGI": "> 100 µM"}
{"compound": "NC(N)=NNC(=O)CCn1[nH]c(=O)c(Cl)c(Cl)c1=O", "TGI": "> 100 µM"}
{"compound": "CN1CCCN(C)CCCN(C)CCCN(C)CCC1", "TGI": "> 100 µM"}
{"compound": "Cn1ccnc1CCc1ccc(Cl)cc1Cl", "TGI": "> 100 µM"}
{"compound": "C=CCN(c1cc(OCc2ccccc2)c2c(c(C)cn2S(=O)(=O)c2ccc([N+](=O)[O-])cc2)c1[N+](=O)[O-])S(C)(=O)=O", "TGI": "> 100 µM"}
{"compound": "O=C1Nc2ccccc2/C1=C/C(=N/c1nnc(-c2ccc(Cl)cc2)s1)c1ccccc1", "TGI": "4.92 µM"}

###

# Lookup of reported TGI keyed by entry
Test system: IGROV1 ovarian
assaySummary: NCI tumour cell line growth inhibition, 48 h
quantityMeasured: TGI

{"compound": "CC(=O)COC(=O)CC(C)=O", "quantityMeasured": "TGI", "experimentalValue": "> 100 µM"}
{"compound": "Nc1ncnc2c1ncn2C1OC(CSC(F)F)C(O)C1O (stereo not drawn)", "quantityMeasured": "TGI", "experimentalValue": "> 100 µM"}
{"compound": "CC1(C)CCCC2(C)[C@@H]1CC[C@@]13CC(=O)[C@@](C)(CC[C@@H]21)C3 (stereo partly drawn)", "quantityMeasured": "TGI", "experimentalValue": "> 100 µM"}
{"compound": "CC(=O)O[C@@H]1C(C2CCCCC2)C=[N+]([O-])O[C@@H]1OC1CCCC1(c1ccccc1)c1ccccc1 (stereo partly drawn)", "quantityMeasured": "TGI", "experimentalValue": "8.83 µM"}
{"compound": "CCOc1c(OC)cc(C2c3cc4c(c(OCC)c3CC3COC(=O)C32)OCO4)cc1OC (stereo not drawn)", "quantityMeasured": "TGI", "experimentalValue": "80.5 µM"}
{"compound": "c1ccc(-c2n(Cc3ccc4ccccc4n3)cc[n+]2Cc2ccc3ccccc3n2)cc1", "quantityMeasured": "TGI", "experimentalValue": "16.4 µM"}
{"compound": "O=S(=O)(Nc1cccc(Cl)c1)c1ccc(-c2cnc(C3CC3)o2)cc1", "quantityMeasured": "TGI", "experimentalValue": "21.6 µM"}
{"compound": "COc1ccc(/C=C/c2cc(OC)cc(OC)c2)cc1", "quantityMeasured": "TGI", "experimentalValue": "> 100 µM"}
{"compound": "CC1(C)COC(c2ccc(C(=O)c3ccc(Cl)cc3)cc2)=N1", "quantityMeasured": "TGI", "experimentalValue": "> 100 µM"}
{"compound": "COc1ccc(NC(=O)CC(=O)n2nc(-c3ccccc3)c(N=Nc3ccccc3C(=O)O)c2-c2ccccc2)cc1", "quantityMeasured": "TGI", "experimentalValue": "> 100 µM"}
{"compound": "C[n+]1c2ccccc2c2/c(=C\\C#N)c3ccccc3n21", "quantityMeasured": "TGI", "experimentalValue": "12.2 µM"}
{"compound": "COc1ccc(/C=C/C(=O)c2cc(C(=O)O)c(OC)cc2OC)cc1OC", "quantityMeasured": "TGI", "experimentalValue": "> 100 µM"}
{"compound": "CCOC(=O)COc1ccc(OC)c2c1C(=O)CCC2", "quantityMeasured": "TGI", "experimentalValue": "> 100 µM"}
